# assay.system: Calcium/calmodulin-dependent protein kinase type II subunit delta (Homo sapiens) (UniProt Q13557);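 further: mean percent inhibition of CAMK2D, from screening of the GSK Published Kinase Inhibitor Set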
# Sequence (Q13557 whole entry): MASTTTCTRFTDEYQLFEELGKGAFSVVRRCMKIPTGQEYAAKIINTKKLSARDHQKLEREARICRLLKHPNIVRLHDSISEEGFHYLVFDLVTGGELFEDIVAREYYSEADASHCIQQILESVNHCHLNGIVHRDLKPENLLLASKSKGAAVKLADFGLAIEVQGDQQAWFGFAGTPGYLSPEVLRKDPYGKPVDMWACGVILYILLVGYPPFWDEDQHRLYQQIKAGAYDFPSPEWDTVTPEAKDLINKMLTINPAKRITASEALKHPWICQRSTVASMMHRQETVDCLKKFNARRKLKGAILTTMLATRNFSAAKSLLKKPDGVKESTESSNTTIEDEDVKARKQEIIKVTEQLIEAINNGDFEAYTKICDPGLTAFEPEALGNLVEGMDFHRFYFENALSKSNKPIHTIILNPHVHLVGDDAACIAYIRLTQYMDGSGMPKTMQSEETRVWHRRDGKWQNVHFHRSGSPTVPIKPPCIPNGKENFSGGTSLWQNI
# assay.context: at 1 µM
Below, each entry is listed with its recorded inhibition.
readout.type: inhibition (%)

compound	readout.type	reported.result
COc1ccc(-c2nn3ncccc3c2-c2ccnc(Nc3ccc(Cl)c(C(F)(F)F)c3)n2)cc1	inhibition	-0.01
[O-][S+]1CCN(Cc2ccc(-c3ccc4ncnc(Nc5ccc(OCc6ccccc6)c(F)c5)c4c3)o2)CC1	inhibition	2.19
CC1=C(C(=O)Nc2ccc3[nH]ncc3c2)C(c2ccc(F)cc2)NC(=O)N1 (stereo unspecified)	inhibition	1.35
CS(=O)(=O)Nc1ccc(N/C=C2\C(=O)Nc3ccccc32)cc1	inhibition	4.73
O=C(Nc1n[nH]c2nc(-c3ccco3)c(Br)cc12)C1CC1	inhibition	4.6
N#Cc1c(NC(=O)c2cccc3ccccc23)sc2c1CCCC2	inhibition	4.57
NCc1ccc(-c2nc(-c3ccc(Cl)c(O)c3)c(-c3ccncc3)[nH]2)cc1	inhibition	2.12
CC1=C(C(=O)Nc2ccc3[nH]ncc3c2)C(c2ccc(Cl)c(Cl)c2)CC(=O)N1 (stereo unspecified)	inhibition	3.98
COc1ccccc1Nc1ncc(-c2ccccc2)o1	inhibition	4.92
COc1cc(C=NNc2ncnc3c2cnn3-c2ccccc2)ccc1O	inhibition	12.4
COc1ccc(-c2ccncc2)cc1C(N)=O	inhibition	8.26
